Recorded values, source patent USRE48461E1.

Tested on: AR mRNA
Assay: Dose-dependent antisense inhibition of human AR in HuVEC cells (electroporation, qRT-PCR RTS3559, IC50)
Assay type: cell-based
Conditions: Table 30; 187.5 nM, HuVEC, electroporation, approximately 16 hours
Oligonucleotides are written 5' to 3', each unit as a sugar letter and its base; * is a phosphorothioate linkage, no mark a phosphodiester; rarer units and linkages stand in square brackets, end groups in braces. Plain capitals give the bases only. k = constrained ethyl (cEt); [5mC] = 5-methylcytosine; d = 2'-deoxy (DNA)
Assignment: determine reported percent inhibition of AR, 187.5 nM for the given substances.
Give bare numbers, in %.

583727 (antisense kG*kA*kT*dT*d[5mC]*dT*dG*dG*dA*dA*dA*dG*d[5mC]*kT*k[5mC]*k[5mC]) [compound 583727] | 49
583734 (antisense kT*k[5mC]*kA*d[5mC]*dT*dT*d[5mC]*dG*d[5mC]*dG*d[5mC]*dA*d[5mC]*kG*k[5mC]*kT) [compound 583734] | 60
583667 (antisense k[5mC]*kG*k[5mC]*dT*d[5mC]*dT*dG*dA*d[5mC]*dA*dG*d[5mC]*d[5mC]*kT*k[5mC]*kA) [compound 583667] | 55

I need percent inhibition of AR, 187.5 nM for every entry listed below, if you could help.
1. 583687 (antisense kG*kG*kT*dA*dG*dT*d[5mC]*dG*d[5mC]*dT*dG*d[5mC]*dA*kG*k[5mC]*kT) [compound 583687]
2. 583745 (antisense k[5mC]*kG*k[5mC]*dT*d[5mC]*dG*d[5mC]*dG*dG*d[5mC]*d[5mC]*dT*d[5mC]*kT*kG*kG) [compound 583745]

A)
[67, 51]
